Target: T1, cynomolgus monkey (Macaca fascicularis) TfR1 (cynomolgus monkey (Macaca fascicularis), UniProt Q5RDH6 89-760 (Pongo abelii entry), limits assumed)
T1 construct: also called cTfR1; cyTfR1
T1 chain: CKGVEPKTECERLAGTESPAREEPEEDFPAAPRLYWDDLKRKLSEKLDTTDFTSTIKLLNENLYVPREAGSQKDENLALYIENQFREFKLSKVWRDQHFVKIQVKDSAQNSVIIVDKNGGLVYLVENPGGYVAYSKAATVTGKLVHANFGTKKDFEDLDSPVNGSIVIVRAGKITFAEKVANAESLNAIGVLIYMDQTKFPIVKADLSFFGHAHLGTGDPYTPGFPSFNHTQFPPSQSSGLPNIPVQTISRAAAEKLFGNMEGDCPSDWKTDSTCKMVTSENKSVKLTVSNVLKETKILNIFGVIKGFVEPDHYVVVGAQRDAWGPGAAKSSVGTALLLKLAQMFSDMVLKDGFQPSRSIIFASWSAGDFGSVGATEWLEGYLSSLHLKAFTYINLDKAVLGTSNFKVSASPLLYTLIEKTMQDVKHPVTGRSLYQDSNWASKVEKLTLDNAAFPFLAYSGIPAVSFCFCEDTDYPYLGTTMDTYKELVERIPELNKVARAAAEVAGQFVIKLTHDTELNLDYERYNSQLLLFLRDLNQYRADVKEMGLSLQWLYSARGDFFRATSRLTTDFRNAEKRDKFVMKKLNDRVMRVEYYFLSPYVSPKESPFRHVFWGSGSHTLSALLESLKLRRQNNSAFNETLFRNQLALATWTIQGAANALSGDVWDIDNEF
Assay: ELISA, coated recombinant TfR1, unconjugated Fab
ENDPOINT: pEC50
Reminder that pEC50 means the negative base-10 logarithm of the concentration expressed in mol/L.

Value of measured pEC50 for the entry humanized anti-TfR Fab 5H12 VH5 (C33Y)/Vk4 (Fab, V domains shown) VH: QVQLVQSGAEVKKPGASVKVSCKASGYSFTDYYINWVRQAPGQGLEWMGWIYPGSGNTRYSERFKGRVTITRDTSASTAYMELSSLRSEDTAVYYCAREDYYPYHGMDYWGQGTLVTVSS VL: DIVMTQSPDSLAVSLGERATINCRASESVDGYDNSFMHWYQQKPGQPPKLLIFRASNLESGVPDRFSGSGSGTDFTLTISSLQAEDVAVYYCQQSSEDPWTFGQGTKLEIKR : 8.48

Value of measured pEC50 for the entry humanized anti-TfR Fab 3A4 VH3 (N54T)/Vk4 (Fab, V domains shown) VH: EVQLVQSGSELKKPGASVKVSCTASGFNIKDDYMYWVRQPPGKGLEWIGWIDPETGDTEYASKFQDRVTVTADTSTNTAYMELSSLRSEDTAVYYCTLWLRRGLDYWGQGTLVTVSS VL: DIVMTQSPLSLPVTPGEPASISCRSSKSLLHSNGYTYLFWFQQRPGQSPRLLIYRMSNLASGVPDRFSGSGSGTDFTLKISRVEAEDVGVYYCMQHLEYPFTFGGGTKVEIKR : 6.81
